Source of measurements: patent US11746125B2

- Test system: human fibroblast cell line (CCD-966SK)
- assayProcedure: Assay in increasing expression of genes: human fibroblast cells cultured with peptides, RNA detected by nCounter Analysis System
- Format: cell-based
- runConditions: peptides 12.5 and 25 μg/ml, 6 or 24 hours
reportedEndpoint: expression of collagen I gene

substance="QKRRTCK [Heter-7, synthetic 7-mer peptide QKRRTCK]" reportedendpoint="expression of collagen I gene" reportedresult=increases
substance="QRIKYIKP [Chiro-8, synthetic 8-mer peptide QRIKYIKP]" reportedendpoint="expression of collagen I gene" reportedresult=increases
substance="TKSGKF [Latrol-6, synthetic 6-mer peptide TKSGKF]" reportedendpoint="expression of collagen I gene" reportedresult=increases
